Sequence of the target: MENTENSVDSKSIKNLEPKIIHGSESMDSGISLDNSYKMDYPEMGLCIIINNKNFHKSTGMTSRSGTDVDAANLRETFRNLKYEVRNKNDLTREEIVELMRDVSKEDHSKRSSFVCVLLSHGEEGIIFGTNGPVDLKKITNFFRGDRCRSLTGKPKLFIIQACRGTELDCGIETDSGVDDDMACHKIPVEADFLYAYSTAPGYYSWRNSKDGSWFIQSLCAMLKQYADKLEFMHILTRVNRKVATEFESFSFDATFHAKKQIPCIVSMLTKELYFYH
# Lookup of reported IC50 keyed by entry

INSERT INTO results (molecule, result) VALUES
  ('O=C1C[C@H](NC(=O)[C@@H]2CN(C(=O)OCc3ccccc3)C[C@@H]3C/C=C\C[C@H](NC(=O)c4ccccc4)C(=O)N32)C(O)O1 (stereo partly specified)', '3.26 µM'),
  ('O=C1C[C@H](NC(=O)[C@@H]2CN(S(=O)(=O)c3ccccc3)C[C@@H]3CCCC[C@H](NC(=O)c4ccccc4)C(=O)N32)C(O)O1 (stereo partly specified)', '> 10 µM'),
  ('O=C1C[C@H](NC(=O)[C@@H]2CN(C(=O)OCc3ccccc3)C[C@@H]3C/C=C\C[C@H](NC(=O)c4ccc5ccccc5c4)C(=O)N32)C(O)O1 (stereo partly specified)', '4.85 µM'),
  ('O=C1C[C@H](NC(=O)[C@@H]2CNC[C@@H]3CCCC[C@H](NC(=O)c4nccc5ccccc45)C(=O)N32)C(O)O1 (stereo partly specified)', '> 10 µM'),
  ('O=C1C[C@H](NC(=O)[C@@H]2CN(C(=O)Nc3ccccc3)C[C@@H]3CCCC[C@H](NC(=O)c4ccccc4)C(=O)N32)C(O)O1 (stereo partly specified)', '> 10 µM');

What measured IC50 goes with O=C1C[C@H](NC(=O)[C@@H]2COC[C@@H]3C/C=C\C[C@H](NC(=O)c4cc5ccccc5s4)C(=O)N32)C(O)O1 (stereo partly specified) ?
> 10 µM

----------
- Tested Target: UniProtKB Q14790
- Sequence (Q14790 217-374 limits assumed): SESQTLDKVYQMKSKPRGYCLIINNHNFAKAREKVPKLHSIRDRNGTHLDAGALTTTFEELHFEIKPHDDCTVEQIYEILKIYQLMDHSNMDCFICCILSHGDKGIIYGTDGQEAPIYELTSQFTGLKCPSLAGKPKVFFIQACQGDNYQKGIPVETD
- Sequence (Q14790 385-479 limits assumed): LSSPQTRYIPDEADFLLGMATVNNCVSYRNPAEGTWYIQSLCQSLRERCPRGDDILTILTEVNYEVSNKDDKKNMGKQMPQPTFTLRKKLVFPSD
Threshold-based label: IC50 under 500 nM gives Criterion met, IC50 not under 500 nM gives Criterion not met.

Examples from the recorded data:
INSERT INTO assay_data (compound, answer_label) VALUES
  ('O=C1C[C@H](NC(=O)[C@@H]2COC[C@@H]3CCCC[C@H](NC(=O)c4ccc5ccccc5c4)C(=O)N32)C(O)O1 (stereo partly specified)', 'Criterion not met'),
  ('O=C1C[C@H](NC(=O)[C@@H]2COC[C@@H]3C/C=C\C[C@H](NC(=O)c4nccc5ccccc45)C(=O)N32)C(O)O1 (stereo partly specified)', 'Criterion not met'),
  ('O=C1C[C@H](NC(=O)[C@@H]2CNC[C@@H]3CCCC[C@H](NC(=O)c4ccccc4)C(=O)N32)C(O)O1 (stereo partly specified)', 'Criterion met'),
  ('O=C1C[C@H](NC(=O)[C@@H]2CN(S(=O)(=O)c3ccccc3)C[C@@H]3CCCC[C@H](NC(=O)c4ccc5ccccc5c4)C(=O)N32)C(O)O1 (stereo partly specified)', 'Criterion met'),
  ('O=C1C[C@H](NC(=O)[C@@H]2CN(C(=O)OCc3ccccc3)C[C@@H]3C/C=C\C[C@H](NC(=O)c4nccc5ccccc45)C(=O)N32)C(O)O1 (stereo partly specified)', 'Criterion met');

For O=C1C[C@H](NC(=O)[C@@H]2COC[C@@H]3C/C=C\C[C@H](NC(=O)c4cc5ccccc5s4)C(=O)N32)C(O)O1 (stereo partly specified) , is the recorded IC50 below the cut-off of 500 nM?
Criterion not met

Please give the result for O=C1C[C@H](NC(=O)[C@@H]2COC[C@@H]3C/C=C\C[C@H](NC(=O)c4ccc(Cl)cc4)C(=O)N32)C(O)O1 (stereo partly specified) too.
Criterion not met

Please give the result for CS(=O)(=O)N1C[C@@H]2CCCC[C@H](NC(=O)c3ccc4ccccc4c3)C(=O)N2[C@H](C(=O)N[C@H]2CC(=O)OC2O)C1 (stereo partly specified) too.
Criterion met

Please give the result for O=C1C[C@H](NC(=O)[C@@H]2COC[C@@H]3C/C=C\C[C@H](NC(=O)c4ccc5ccccc5c4)C(=O)N32)C(O)O1 (stereo partly specified) too.
Criterion not met

Please give the result for O=C1C[C@H](NC(=O)[C@@H]2COC[C@@H]3C/C=C\C[C@H](NC(=O)c4ccccc4Cl)C(=O)N32)C(O)O1 (stereo partly specified) too.
Criterion met
